Numbers sourced from ChEMBL document CHEMBL2163208.

Please go through the items and note down their AUC(0-t) at 8 h.
experiment: AUC (0 to 8 hrs) in transgenic mouse expressing human CETP and apoB-100 at 30 mg/kg, po; format: ADME, organism-based; set-up: time < 8 hr, dose 30 mg/kg, route oral; settings: plasma
Numbers only, in µM·h.

Below, 2 compounds whose answers are already recorded.
mol=CCOC(=O)N1c2ccc(C(F)(F)F)cc2[C@@H](N(Cc2cc(C(F)(F)F)cc(C(F)(F)F)c2)C(=O)OC)C[C@H]1CC measured_metric="AUC(0-t) at 8 h" reported_measurement=65
mol=O=C(NC1CCCC1)N[C@@](Cc1ccccc1)(c1cc(F)cc(OC(F)(F)C(F)F)c1)c1ccc(Cl)cn1 measured_metric="AUC(0-t) at 8 h" reported_measurement=9.7

Now look at this entry.
Query: Sample O=C(N[C@@](Cc1ccccc1)(c1cc(F)cc(OC(F)(F)C(F)F)c1)c1ccc(Cl)cn1)c1ccc(F)c(C(F)(F)F)c1 — what was its AUC(0-t) at 8 h?
Response: 93
